- Test details: Solubility measurement of saturated solution in phosphate buffer (HPLC)
- Assay type: physicochemical
- Assay context: aqueous buffer, thermodynamic from solid; phosphate buffer pH 7.0, room temperature, shaken 2 hours, filtered 0.45 μm, HPLC
Attribute measured: solubility at 2 h (µg/mL)
Answers are plain numbers, in µg/mL.

Query :: Request the reported solubility at 2 h associated with COc1cccc(N2CCN(C3=Nc4c(F)cccc4[C@H](CC(=O)O)N3c3cc(C(F)(F)F)ccc3OC)CC2)c1 [Example 6A]
Result :: 400
